tested on: biotinyl-Met-oxazolone; assay: self-aminoacylation, catalytic enhancement (BMO) (fold over background); higher = more active; k-Seq, kA / k0A0; sequences stand for … in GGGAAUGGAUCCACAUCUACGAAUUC…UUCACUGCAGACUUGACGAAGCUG
Variants at the floor of the assay were thinned out.
Everything with self-aminoacylation lower than 0.8 is Not satisfied; everything else, including exactly 0.8, is Satisfied.

Completed entries (count: 3):
CUUCUUCAAACAAUCGUUCUG [Fam1A.1 aminoacylation ribozyme variant]: Not satisfied
AUUCUCCUAGGUCAUCGGGUA [Fam2.2 aminoacylation ribozyme variant]: Satisfied
UUUCACCUAGGGCAUCGGGUG [Fam2.2 aminoacylation ribozyme variant]: Satisfied

Could you tell me if the measured self-aminoacylation of AUUCAGCUAGGGCAUCGGGUG [Fam2.2 aminoacylation ribozyme variant] reaches 0.8 or more?
Satisfied

Exam item: decide whether the reported self-aminoacylation for AUUACGCUGUUCAUCGAGUGA [Fam2.1 aminoacylation ribozyme variant] is at least 0.8.
Satisfied

Is reported self-aminoacylation greater than or equal to 0.8 here: AUUCACCUAGGAAAUCGGGUG [Fam2.2 aminoacylation ribozyme variant]
Satisfied

Identify whether the reported self-aminoacylation of the following sequence is 0.8 or greater: AAGUUUGCUAAUAGAGGCAAG [Fam3.1 aminoacylation ribozyme variant]
Not satisfied

Decide: is the reported value of self-aminoacylation for AUCAUCCUGGUCAUCGAGUGA [Fam2.1 aminoacylation ribozyme variant] equal to or greater than 0.8?
Satisfied

---

test system: biotinyl-Phe-oxazolone; assay: self-aminoacylation, catalytic enhancement (BFO) (fold over background); higher = more active; k-Seq, kA / k0A0; sequences stand for … in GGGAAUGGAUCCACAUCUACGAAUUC…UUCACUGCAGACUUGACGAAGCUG
Variants at the floor of the assay were thinned out.
Quick reference for self-aminoacylation among some sequences
// print number alone

Example entries begin here.
AGGUUUGAUAAUAGUCGCAAG [Fam3.1 aminoacylation ribozyme variant]: 3.51
CCACCCUUGAAGCAAUCGGUC [Fam1B.1 aminoacylation ribozyme variant]: 0.764
GUUACCCUGGUCUUCGAGUGA [Fam2.1 aminoacylation ribozyme variant]: 50.7
AUUAACCCAGGUCAUCGGGUG [Fam2.2 aminoacylation ribozyme variant]: 36.2
AUUACCCUGAUCAUCGAAUGA [Fam2.1 aminoacylation ribozyme variant]: 0.602
CCACUCUUCAAGCCAUCGGUC [Fam1B.1 aminoacylation ribozyme variant]: 0.734
AUUCACCUAUGUCAUCGGGUU [Fam2.2 aminoacylation ribozyme variant]: 0.724
CUACACUUAAAGCAAUCGGUC [Fam1B.1 aminoacylation ribozyme variant]: 0.694

Please fill in: self-aminoacylation reported for AUUACCGUGGUCAUCGAGUAA [Fam2.1 aminoacylation ribozyme variant] = 1.2

The reported value for AAGUCUGCUAAUAGUCGCAAC [Fam3.1 aminoacylation ribozyme variant] in terms of self-aminoacylation is 1.39

Entry AUUAGCCUGGUCAUCGAGUGC [Fam2.1 aminoacylation ribozyme variant] , self-aminoacylation reported as 2.04

Reported self-aminoacylation ( AUAACCCUGGUCAUCCAGUGA [Fam2.1 aminoacylation ribozyme variant] ) = 22.8

Memo: CCAGACUUCAAGCAAACGGUC [Fam1B.1 aminoacylation ribozyme variant] , reported self-aminoacylation: 0.824

Summary for this sequence, CUACUUCAAAGAAUCGGACUG [Fam1A.1 aminoacylation ribozyme variant] : self-aminoacylation is 1.29

Per the record, ACUACCCUGCUCAUCGAGUGA [Fam2.1 aminoacylation ribozyme variant] has self-aminoacylation of 2.39

CUCCUUCAAACCAUCGGUCUG [Fam1A.1 aminoacylation ribozyme variant] has a reported self-aminoacylation of 1.69

// self-aminoacylation lookup, sequence = AAGGUUGCAAAUAGUCGCAAG [Fam3.1 aminoacylation ribozyme variant] , result: 1.44

In plain terms, AUUCAGCUAGGGCAUCGGGUG [Fam2.2 aminoacylation ribozyme variant] has a documented self-aminoacylation of 64.3

---

tested on: biotinyl-Trp-oxazolone; assay: self-aminoacylation, catalytic enhancement (BWO) (fold over background); higher = more active; k-Seq, kA / k0A0; sequences stand for … in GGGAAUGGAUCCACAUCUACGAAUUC…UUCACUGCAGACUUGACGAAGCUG
Fewer inactive variants are shown than the library holds.
Endpoint Label: self-aminoacylation
# output: bare number, no unit

Noted for AAGUUUGCUAAUAGUCUGAAG [Fam3.1 aminoacylation ribozyme variant] : its self-aminoacylation reads 1.34

Looking up CUACUUCAACCAAUAGGUCUG [Fam1A.1 aminoacylation ribozyme variant] , I found its self-aminoacylation recorded as 0.753

Notebook: AUUACACUGGUCGUCGAGUGA [Fam2.1 aminoacylation ribozyme variant] , self-aminoacylation read as 0.958

Given item CUACUCCAAACAAUAGGUCUG [Fam1A.1 aminoacylation ribozyme variant] , the value recorded as its self-aminoacylation is 0.734

---

tested on: biotinyl-Val-oxazolone; assay: self-aminoacylation, catalytic enhancement (BVO) (fold over background); higher = more active; k-Seq, kA / k0A0; sequences stand for … in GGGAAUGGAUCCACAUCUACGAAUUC…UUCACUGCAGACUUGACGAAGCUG
This sample holds only a part of the variants without activity.
self-aminoacylation reference
Lab note: jot the number down without any unit.

Would you please look over these solved cases?
CUUACCCUCGUCAUCGAGUGA [Fam2.1 aminoacylation ribozyme variant]: 1.92
CCACACUCCAAGCAAUAGGUC [Fam1B.1 aminoacylation ribozyme variant]: 0.845
CUACUUCAAACAAUGGGUCUA [Fam1A.1 aminoacylation ribozyme variant]: 0.756
AAGUUUGCUAAAAGUCGCGAG [Fam3.1 aminoacylation ribozyme variant]: 1.68
AUUGCCCUGGACAUCGAGUGA [Fam2.1 aminoacylation ribozyme variant]: 3.11

In plain terms, CCAUACUUCAAGCAAUCGGUG [Fam1B.1 aminoacylation ribozyme variant] has a documented self-aminoacylation of 4.3

Memo: AGGUUUGGUAAUAGUCGCAAG [Fam3.1 aminoacylation ribozyme variant] , reported self-aminoacylation: 1.41

self-aminoacylation reported for this sequence AUUCACCUGGGUCAUCAGGUG [Fam2.2 aminoacylation ribozyme variant] : 1.92

Form: sequence = AUUACCCUGAUCAUAGAGUGA [Fam2.1 aminoacylation ribozyme variant] ; self-aminoacylation = 6.89

---

system: biotinyl-Phe-oxazolone; test: self-aminoacylation, catalytic enhancement (BFO) (fold over background); higher = more active; k-Seq, kA / k0A0; sequences stand for … in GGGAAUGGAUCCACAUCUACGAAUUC…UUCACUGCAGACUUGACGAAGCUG
Variants at the floor of the assay were thinned out.
Lab note: compare self-aminoacylation against 3. Equal or greater, write 1. Smaller, write -1.

Worked examples follow.
AGUACCCUGGUCAUCGAGUUA [Fam2.1 aminoacylation ribozyme variant]: -1
AAGUUUGCUCAUAGGCGCAAG [Fam3.1 aminoacylation ribozyme variant]: -1
AUGACCCUGGUCAUCGUGUGA [Fam2.1 aminoacylation ribozyme variant]: 1
AUUACCCAGGUCAUCGGGUGA [Fam2.1 aminoacylation ribozyme variant]: 1
CUACUUCAAACAUUCGGUCUC [Fam1A.1 aminoacylation ribozyme variant]: -1

Please tell me: is the sequence CCACACUUCAAGCAGUCGCUC [Fam1B.1 aminoacylation ribozyme variant] at or over 3 in terms of self-aminoacylation?
1

Can AUUCACCUCCGUCAUCGGGUG [Fam2.2 aminoacylation ribozyme variant] be said to have self-aminoacylation at or above 3?
1

For this sequence, is measured self-aminoacylation 3 or higher? CUCCUUCAAACAAUCGGUGUG [Fam1A.1 aminoacylation ribozyme variant]
1

Hello, I need to know if AUUCAUAUAGGUCAUCGGGUG [Fam2.2 aminoacylation ribozyme variant] has measured self-aminoacylation not below 3. Thanks!
1

Please tell me: is the sequence CUUCACCUAGGUCAUCGCGUG [Fam2.2 aminoacylation ribozyme variant] at or over 3 in terms of self-aminoacylation?
1

---

test system: biotinyl-Trp-oxazolone; assay: self-aminoacylation, catalytic enhancement (BWO) (fold over background); higher = more active; k-Seq, kA / k0A0; sequences stand for … in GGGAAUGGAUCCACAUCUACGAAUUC…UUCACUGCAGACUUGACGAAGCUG
This sample holds only a part of the variants without activity.
Parameter self-aminoacylation: see the listing below.
Respond numerically, and do not add a unit to the figure.

AUUCACCUAGGUCAUCGGCUA [Fam2.2 aminoacylation ribozyme variant]: 2.62
AAUUUUGUUAAUAGUCGCAAG [Fam3.1 aminoacylation ribozyme variant]: 2.56
CUACUUCAAACAAUAGGUCUU [Fam1A.1 aminoacylation ribozyme variant]: 0.538
GAGUUUGCUAAUAGUCGCAAG [Fam3.1 aminoacylation ribozyme variant]: 7.44
AUUACCAUGGUCAUGGAGUGA [Fam2.1 aminoacylation ribozyme variant]: 7.35
GUUACCCUGGUCAUGGAGUGA [Fam2.1 aminoacylation ribozyme variant]: 7.15
GUUAACCUGGUCAUCGAGUGA [Fam2.1 aminoacylation ribozyme variant]: 8.69
CGACUUCAUACAAUCGGUCUG [Fam1A.1 aminoacylation ribozyme variant]: 0.879

Now examine the next entry.
Sure, the documented self-aminoacylation for UUUCACCUAGGUCUUCGGGUG [Fam2.2 aminoacylation ribozyme variant] is 5.4
